# targetOfAssay: ERα (Homo sapiens (Human), UniProt P03372)
# Sequence (P03372 whole entry): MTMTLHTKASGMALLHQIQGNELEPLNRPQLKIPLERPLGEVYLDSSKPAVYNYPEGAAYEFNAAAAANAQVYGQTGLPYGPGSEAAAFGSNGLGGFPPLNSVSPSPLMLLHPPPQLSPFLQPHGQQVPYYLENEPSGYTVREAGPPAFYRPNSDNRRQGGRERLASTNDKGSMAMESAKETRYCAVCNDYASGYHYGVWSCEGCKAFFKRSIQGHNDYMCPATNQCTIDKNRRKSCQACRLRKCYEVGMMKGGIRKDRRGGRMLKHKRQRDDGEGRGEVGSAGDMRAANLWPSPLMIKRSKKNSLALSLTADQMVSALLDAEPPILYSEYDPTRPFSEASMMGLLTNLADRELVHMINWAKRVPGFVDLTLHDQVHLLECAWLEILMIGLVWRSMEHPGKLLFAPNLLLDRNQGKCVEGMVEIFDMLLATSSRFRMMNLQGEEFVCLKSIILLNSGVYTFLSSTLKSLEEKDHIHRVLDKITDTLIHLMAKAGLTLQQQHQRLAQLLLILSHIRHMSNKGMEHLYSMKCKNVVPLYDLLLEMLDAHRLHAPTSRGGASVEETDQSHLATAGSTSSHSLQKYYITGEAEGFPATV
# protocolDetails: ERα degradation (MCF7 cells), in-cell Western
# conditionDescription: inflection point of the degradation in response to ligand concentration, MCF7 cells
Listed compounds paired with reported pIC50
When answering, recall that pIC50 equals minus log10 of the concentration in mol/L, and write that number alone.

A selection of reference data follows.
COc1ccc(-c2sc3cc(O)ccc3c2Oc2ccc(/C=C/C(=O)O)cc2)cc1 7.68
CN(C)Cc1ccccc1-c1sc2cc(O)ccc2c1Oc1ccc(/C=C/C(=O)O)cc1 8.85
CNC(=O)/C=C/c1ccc(Oc2c(-c3ccc(F)cc3)sc3cc(O)ccc23)cc1 6.46
CC(C)c1cccc(-c2sc3cc(O)ccc3c2Oc2ccc(/C=C/C(=O)O)cc2)c1 8.18
Cn1nnnc1/C=C/c1ccc(Oc2c(-c3ccc(F)cc3)sc3cc(O)ccc23)cc1 6.65
CCCn1cnc(/C=C/c2ccc(Oc3c(-c4ccc(O)cc4)sc4cc(O)ccc34)cc2)c1 8.00
O=C(O)/C=C/c1ccc(Oc2c(-c3ccc(OC(F)(F)F)cc3)sc3cc(O)ccc23)cc1 7.52

Recorded result, O=C(O)/C=C/c1ccc(Oc2c(-c3ccc(C(F)F)cc3)sc3cc(O)ccc23)cc1 , pIC50: 7.07

###

Item-by-item account of % ERα remaining
# targetOfAssay: ERα (Homo sapiens (Human))
# protocolDetails: ERα degradation (MCF7 cells), in-cell Western
# Type: cell-based
# conditionDescription: remaining ERα protein at 10 μM ligand, MCF7 cells, relative to DMSO control
Remember to follow the number with its unit.

Sample answers from the record:
compound	% ERα remaining
Cc1noc(C)c1-c1sc2cc(O)ccc2c1Oc1ccc(/C=C/C(=O)O)cc1	20%
C[C@@H](O)c1ccccc1-c1sc2cc(O)ccc2c1Oc1ccc(/C=C/C(=O)O)cc1	24%
NC(=O)/C=C/c1ccc(Oc2c(-c3ccc(O)cc3)sc3cc(O)ccc23)cc1	48%

Now take the following compound into account.
Just so you know, measured % ERα remaining for CNC(=O)/C=C/c1ccc(Oc2c(-c3ccc(C(F)(F)F)cc3)sc3cc(O)ccc23)cc1 [Example 70] came out at 32%

###

# targetOfAssay: ERα (Homo sapiens (Human))
# protocolDetails: ERα degradation (MCF7 cells), in-cell Western
# conditionDescription: inflection point of the degradation in response to ligand concentration, MCF7 cells
quantityKind: pIC50
Lab note: report pIC50 as minus log10 of the concentration in molar units, number only.

For CNC(=O)/C=C/c1ccc(Oc2c(-c3ccc(C(F)(F)F)cc3)sc3cc(O)ccc23)cc1 [Example 63] the compound record lists pIC50 as 7.62

Given item O=C(O)/C=C/c1ccc(Oc2c(-c3ccccc3[N+](=O)[O-])sc3cc(O)ccc23)cc1 , the value recorded as its pIC50 is 7.82

Entry Cn1nnc(/C=C/c2ccc(Oc3c(-c4ccc(O)cc4)sc4cc(O)ccc34)cc2)n1 ; pIC50 = 7.47

Per the records, this compound ( O=C(O)/C=C/c1ccc(Oc2c(-c3cccc(F)c3C(F)(F)F)sc3cc(O)ccc23)cc1 ) has pIC50 equal to 8.92

###

# targetOfAssay: ERα (Homo sapiens (Human), UniProt P03372)
# protocolDetails: ERα degradation (MCF7 cells), in-cell Western
# Type: cell-based
# conditionDescription: remaining ERα protein at 10 μM ligand, MCF7 cells, relative to DMSO control
# Description: ERα Degradation (MCF7 Cells) The column titled MCF7 IC50 reports the inflection point of the inhibition of transcription in MCF7 cells as described above. Percentage ERα remaining reports the remaining ERα protein measured at 10 μM concentration of the ligand as described above. The column ERα IC50 reports the inflection point of the degradation in response to the ligand concentration.
We begin with a simple list: items and their reported % ERα remaining.

Consider the reported % ERα remaining for these compounds:
compound	val
Cc1cc(F)ccc1-c1sc2cc(O)ccc2c1Oc1ccc(/C=C/C(=O)NO)cc1 [Example 32]	25%
CC(C)c1ccccc1-c1sc2cc(OCN3C(=O)c4ccccc4S3(=O)=O)ccc2c1Oc1ccc(/C=C/C(=O)O)cc1 [Example 84]	12%
CCOC(=O)/C=C/c1ccc(Oc2c(-c3ccccc3C(C)C)sc3cc(O)ccc23)cc1 [Example 137]	15%
COC(=O)/C=C/c1ccc(Oc2c(-c3ccc(F)cc3)sc3cc(O)ccc23)cc1 [Example 36]	28%
CC(C)c1ncoc1-c1sc2cc(O)ccc2c1Oc1ccc(/C=C/C(=O)O)cc1 [Example 115]	15%
O=c1nc(/C=C/c2ccc(Oc3c(-c4ccc(O)cc4)sc4cc(O)ccc34)cc2)cc(C(F)(F)F)[nH]1 [Example 50]	36%

# % ERα remaining of CCCn1cncc1/C=C/c1ccc(Oc2c(-c3ccc(O)cc3)sc3cc(O)ccc23)cc1 [Example 75] = 41%

What the record says about Cn1ccc2c(-c3sc4cc(O)ccc4c3Oc3ccc(/C=C/C(=O)O)cc3)cccc21 [Example 133] : % ERα remaining is 17%
